# assay target: Signal transducer and activator of transcription 3 (Homo sapiens) (UniProt P40763)
# Sequence (P40763 whole entry): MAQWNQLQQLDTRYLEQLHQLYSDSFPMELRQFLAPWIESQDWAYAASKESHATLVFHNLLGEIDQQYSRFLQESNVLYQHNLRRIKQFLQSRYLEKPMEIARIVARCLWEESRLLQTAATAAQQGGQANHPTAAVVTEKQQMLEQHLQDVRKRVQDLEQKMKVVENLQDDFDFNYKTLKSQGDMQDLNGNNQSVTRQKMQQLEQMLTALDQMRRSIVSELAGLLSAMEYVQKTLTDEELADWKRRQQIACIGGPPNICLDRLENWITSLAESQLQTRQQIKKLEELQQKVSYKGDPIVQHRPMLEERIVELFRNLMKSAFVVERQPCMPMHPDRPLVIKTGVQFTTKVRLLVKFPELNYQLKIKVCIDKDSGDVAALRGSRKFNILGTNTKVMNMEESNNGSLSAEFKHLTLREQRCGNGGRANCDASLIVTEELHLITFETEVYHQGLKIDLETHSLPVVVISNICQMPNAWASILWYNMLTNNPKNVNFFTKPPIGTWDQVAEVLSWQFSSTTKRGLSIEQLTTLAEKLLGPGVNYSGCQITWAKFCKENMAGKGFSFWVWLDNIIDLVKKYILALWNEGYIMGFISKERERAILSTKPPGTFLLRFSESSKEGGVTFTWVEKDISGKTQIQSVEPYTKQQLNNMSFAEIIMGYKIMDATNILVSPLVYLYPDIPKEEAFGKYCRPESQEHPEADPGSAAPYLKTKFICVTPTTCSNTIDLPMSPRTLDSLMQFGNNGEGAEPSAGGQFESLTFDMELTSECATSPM
# protocol text: Inhibition of STAT3 (unknown origin) transcriptional signaling transfected in HEK293T cells at 3 uM incubated for 24 hrs by firefly luciferase gene reporter assay
# Assay type: cell-based
Active and inactive are the calls of the source. The rule behind the calls is not given here.
measurement kind: inhibition

COc1ccn2c(-c3ccc(NC(=O)c4ccc([N+](=O)[O-])o4)c(C(F)(F)F)c3)cnc2c1 = Active
COc1ccn2c(-c3ccc(NC(=O)c4ccc([N+](=O)[O-])o4)cc3F)cnc2c1 = Active
Cc1cc(-c2cnc3ccccn23)ccc1NC(=O)c1ccc([N+](=O)[O-])o1 = Active
O=C(Nc1ccc(-c2cnc3ccccn23)cc1)c1ccc([N+](=O)[O-])o1 = Active
Cc1cc(NC(=O)c2ccc([N+](=O)[O-])o2)ccc1-c1cnc2ccccn12 = Active
COc1ccn2c(-c3ccc(NC(=O)c4ccc([N+](=O)[O-])o4)c(C)c3)cnc2c1 = Active
CC(=O)N1CC=C(c2ccn3c(-c4ccc(NC(=O)c5ccc([N+](=O)[O-])o5)cc4)cnc3c2)CC1 = Active
O=C(Nc1ccc(-c2cnc3cc(C4=CCNCC4)ccn23)cc1)c1ccc([N+](=O)[O-])o1 = Active

Record O=C(Cc1c(-c2ccccc2)nc2ccccn12)Nc1ccc2c(c1)S(=O)(=O)C=C2 , field inhibition: Active

Record COc1ccn2c(-c3ccc(NC(=O)c4ccc([N+](=O)[O-])o4)cc3C)cnc2c1 , field inhibition: Active

Record COc1ccn2c(-c3ccc(NC(=O)c4ccc([N+](=O)[O-])o4)cc3)cnc2c1 , field inhibition: Active

Record COc1ccn2c(-c3ccc(NC(=O)c4ccc([N+](=O)[O-])o4)c(C)c3C(F)(F)F)cnc2c1 , field inhibition: Active

---

# Test system: AGS
# protocol text: Antiproliferative activity against human AGS cells assessed as reduction in cell viability incubated for 72 hrs by CCK-8 assay
# Assay type: functional, cell-based
pIC50: −log10 of the molar value.
measurement kind: pIC50

Below: 6 molecules and their reported pIC50.
O=C(Nc1ccc(-c2cnc3cc(Br)ccn23)cc1)c1ccc([N+](=O)[O-])o1 = 6.25
CN1CCN(c2ccn3c(-c4ccc(NC(=O)c5ccc([N+](=O)[O-])o5)cc4)cnc3c2)CC1 = 5.63
O=C(Nc1ccc(-c2cnc3cc(C4=CCN(C5COC5)CC4)ccn23)cc1)c1ccc([N+](=O)[O-])o1 = 6.10
COc1ccn2c(-c3ccc(NC(=O)c4ccc([N+](=O)[O-])o4)c(C(F)(F)F)c3)cnc2c1 = 6.15
O=C(Nc1ccc(-c2cnc3cc(N4CCN(C5CC5)CC4)ccn23)cc1)c1ccc([N+](=O)[O-])o1 = 5.72
O=C(Nc1ccc(-c2cnc3cc(N4CCOCC4)ccn23)cc1)c1ccc([N+](=O)[O-])o1 = 5.65

(a) O=C(Nc1ccc(-c2cnc3cc(N4CCS(=O)(=O)CC4)ccn23)cc1)c1ccc([N+](=O)[O-])o1
(b) COc1ccn2c(-c3ccc(NC(=O)c4ccc([N+](=O)[O-])o4)cc3F)cnc2c1
(c) Cc1cc(NC(=O)c2ccc([N+](=O)[O-])o2)ccc1-c1cnc2ccccn12
(d) COc1ccn2c(-c3ccc(NC(=O)c4ccc([N+](=O)[O-])o4)c(OC)c3)cnc2c1
(Q) Rank entries according to their pIC50, from the largest number down. Enter labels, ranked according to the request.
(A) c, b, a, d

(a) CN1CCCN(c2ccn3c(-c4ccc(NC(=O)c5ccc([N+](=O)[O-])o5)cc4)cnc3c2)CC1
(b) COc1ccn2c(-c3ccc(NC(=O)c4ccc([N+](=O)[O-])o4)cc3)cnc2c1
(Q) Form field 'greater pIC50' accepts a or b ; which applies? Respond with the label that goes with your answer.
(A) b
(b: 6.14, a: 5.57)

(P) O=C(Nc1ccc(-c2cnc3cc(Cl)ccn23)cc1)c1ccc([N+](=O)[O-])o1
(Q) Cc1cc(-c2cnc3ccccn23)ccc1NC(=O)c1ccc([N+](=O)[O-])o1
(Q) Hi, I'm comparing two records. Which one has the lower pIC50, P or Q ? Respond with the label that goes with your answer.
(A) P
